Biological target: T1, EcoCascade-crRNA(EMX1) (Escherichia coli, UniProt Q46901;P76632;Q46899;Q46898;Q46897 1-502;1-160;2-363;1-224;2-199)
T1 sequence 1: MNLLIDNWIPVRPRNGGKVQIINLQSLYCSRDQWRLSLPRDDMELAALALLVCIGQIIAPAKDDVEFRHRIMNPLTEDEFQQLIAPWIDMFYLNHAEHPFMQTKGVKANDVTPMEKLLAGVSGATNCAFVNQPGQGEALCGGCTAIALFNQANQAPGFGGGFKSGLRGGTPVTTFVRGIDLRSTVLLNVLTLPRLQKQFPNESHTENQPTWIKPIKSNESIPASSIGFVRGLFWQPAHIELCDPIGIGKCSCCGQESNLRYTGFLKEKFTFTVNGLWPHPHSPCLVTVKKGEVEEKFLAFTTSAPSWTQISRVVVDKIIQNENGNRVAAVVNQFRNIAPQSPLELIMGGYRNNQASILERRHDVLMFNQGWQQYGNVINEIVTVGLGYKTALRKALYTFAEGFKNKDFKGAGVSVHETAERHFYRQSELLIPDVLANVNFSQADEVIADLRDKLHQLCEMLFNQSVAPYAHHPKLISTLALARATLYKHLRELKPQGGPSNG
T1 sequence 2: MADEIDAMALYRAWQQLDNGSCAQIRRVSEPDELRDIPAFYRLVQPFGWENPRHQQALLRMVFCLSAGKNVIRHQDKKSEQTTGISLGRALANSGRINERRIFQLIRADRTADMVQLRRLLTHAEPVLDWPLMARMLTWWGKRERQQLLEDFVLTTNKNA
T1 sequence 3: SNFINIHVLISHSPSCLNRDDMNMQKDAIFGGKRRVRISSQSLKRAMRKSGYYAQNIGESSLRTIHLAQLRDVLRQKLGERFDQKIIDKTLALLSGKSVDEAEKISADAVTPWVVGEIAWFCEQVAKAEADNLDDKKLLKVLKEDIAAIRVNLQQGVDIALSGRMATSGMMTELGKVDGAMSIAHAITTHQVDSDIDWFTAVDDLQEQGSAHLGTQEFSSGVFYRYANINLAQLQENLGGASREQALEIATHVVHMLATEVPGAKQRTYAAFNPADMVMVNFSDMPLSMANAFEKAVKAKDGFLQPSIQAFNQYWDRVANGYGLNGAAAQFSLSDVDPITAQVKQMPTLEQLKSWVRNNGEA
T1 sequence 4: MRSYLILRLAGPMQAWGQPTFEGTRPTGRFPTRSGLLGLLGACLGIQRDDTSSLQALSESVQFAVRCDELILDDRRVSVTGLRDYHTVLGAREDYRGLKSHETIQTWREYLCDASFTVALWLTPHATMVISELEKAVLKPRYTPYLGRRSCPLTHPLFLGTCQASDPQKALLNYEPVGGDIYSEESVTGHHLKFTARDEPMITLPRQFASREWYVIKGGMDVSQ
T1 sequence 5: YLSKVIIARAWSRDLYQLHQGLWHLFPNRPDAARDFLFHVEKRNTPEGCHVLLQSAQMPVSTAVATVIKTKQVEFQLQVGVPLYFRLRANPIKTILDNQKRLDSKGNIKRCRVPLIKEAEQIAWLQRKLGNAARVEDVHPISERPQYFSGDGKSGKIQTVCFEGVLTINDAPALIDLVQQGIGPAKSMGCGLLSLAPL
Assay: BLI; BLI: PBS, 0.01% Tween 20, 0.02% BSA, 20 uM EcoCascade analyte, biotinylated DNA on streptavidin; temperature not stated; EMSA conditions not in material
Conditions: protein: recombinant; tags: hexahistidine tag on Cas11, removed with HRV3C; copies: 1;2;6;1;1; label: Biotin-TEG; blunt
Observed Property: binding result

Binder: EMX1-AAG-32-bio (n32, paired PAM) (dsDNA) DNA 1: TGGCGCATTGCCACGAAGCAGGCCAATGGGGAGGACATCGATGTCACCTCCAATGACTAG DNA 2: CTAGTCATTGGAGGTGACATCGATGTCCTCCCCATTGGCCTGCTTCGTGGCAATGCGCCA
Reading: binds
--
Binder: EMX1-AAG-6-bio (n6) (dsDNA) DNA 1: TGGCGCATTGCCACGAAGCAGGCCCCGTTTTCTTCACGATCGTGACAAGACAATGACTAG DNA 2: CTAGTCATTGTCTTGTCACGATCGTGAAGAAAACGGGGCCTGCTTCGTGGCAATGCGCCA
Reading: no binding
--
Binder: EMX1-AAG-0-bio (n0) (dsDNA) DNA 1: TGGCGCATTGCCACGAAGACTTAACCGTTTTCTTCACGATCGTGACAAGACAATGACTAG DNA 2: CTAGTCATTGTCTTGTCACGATCGTGAAGAAAACGGTTAAGTCTTCGTGGCAATGCGCCA
Reading: no binding
--
Binder: EMX1-AAG-12-bio (n12) (dsDNA) DNA 1: TGGCGCATTGCCACGAAGCAGGCCAATGGGTCTTCACGATCGTGACAAGACAATGACTAG DNA 2: CTAGTCATTGTCTTGTCACGATCGTGAAGACCCATTGGCCTGCTTCGTGGCAATGCGCCA
Reading: no binding
